Each recorded value in this set is attributed to patent US7074789B2.

Study Target: Zap-70 (Homo sapiens, UniProt P43403)
Construct: Kinases are expressed as either kinase domains or full length constructs; made in house
Sequence (P43403 whole entry, species assumed, the tested form may be a part): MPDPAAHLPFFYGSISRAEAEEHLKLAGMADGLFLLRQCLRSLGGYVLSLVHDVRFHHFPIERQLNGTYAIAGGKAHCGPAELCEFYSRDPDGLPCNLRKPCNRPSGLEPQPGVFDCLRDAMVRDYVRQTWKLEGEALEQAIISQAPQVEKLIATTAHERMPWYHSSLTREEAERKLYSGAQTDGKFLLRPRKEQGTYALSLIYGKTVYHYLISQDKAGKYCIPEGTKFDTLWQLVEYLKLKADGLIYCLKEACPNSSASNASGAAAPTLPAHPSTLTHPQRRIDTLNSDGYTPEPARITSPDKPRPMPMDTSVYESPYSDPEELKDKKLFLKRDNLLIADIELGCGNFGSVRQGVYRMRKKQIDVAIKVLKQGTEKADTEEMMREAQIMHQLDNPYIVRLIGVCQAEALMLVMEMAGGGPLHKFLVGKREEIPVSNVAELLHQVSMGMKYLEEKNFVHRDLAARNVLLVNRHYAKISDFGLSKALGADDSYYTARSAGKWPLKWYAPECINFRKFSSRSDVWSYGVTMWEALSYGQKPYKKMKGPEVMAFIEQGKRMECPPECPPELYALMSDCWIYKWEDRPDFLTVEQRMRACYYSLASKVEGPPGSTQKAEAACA
Test Protocol: Kinase inhibition assay (33P transfer), Zap-70
Format: biochemical
Experimental Setup: read-out: Zap-1
Source text: The inhibitor compounds described herein are screened in the following manner. […] Kinases are expressed as either kinase domains or full length constructs fused to glutathione S-transferase (GST) or polyHistidine tagged fusion proteins in either E. colior Baculovirus-High Five expression systems. […]
pIC50: −log10 of the molar value.
This listing pairs molecules with measured pIC50.

Illustrative cases are given below, each with its answer.
>  <Molecule>
COc1cc(Nc2ncnc(-c3cccnc3NC(C)C)n2)cc(OC)c1OC

>  <Reported Endpoint>
pIC50

>  <Experimental Result>
< 4.94

$$$$
>  <Molecule>
c1ccc(Cn2ncc3cc(Nc4ncnc(Nc5cc(-c6ccccc6)[nH]n5)n4)ccc32)cc1

>  <Reported Endpoint>
pIC50

>  <Experimental Result>
5.01 to 5.12

$$$$
>  <Molecule>
COc1cc(Nc2ncnc(-n3c(Nc4ccc(N(C)C)cc4)nc4ccccc43)n2)cc(OC)c1OC

>  <Reported Endpoint>
pIC50

>  <Experimental Result>
< 5.06

$$$$
>  <Molecule>
Cc1ccc2c(c1)CCCN2c1ncnc(Nc2cccc(CO)c2)n1

>  <Reported Endpoint>
pIC50

>  <Experimental Result>
< 4.89

$$$$
>  <Molecule>
Brc1cccc(Nc2ncnc(Nc3ccc4c(cnn4Cc4ccccc4)c3)n2)c1

>  <Reported Endpoint>
pIC50

>  <Experimental Result>
5.02 to 5.13

$$$$
>  <Molecule>
NC(=O)c1ccccc1Nc1ncnc(-n2c(N)nc3ccccc32)n1

>  <Reported Endpoint>
pIC50

>  <Experimental Result>
4.89 to 5.00

$$$$
>  <Molecule>
Cc1ccc2c(c1)CCCN2c1ncnc(NCCc2cccnc2)n1

>  <Reported Endpoint>
pIC50

>  <Experimental Result>
< 4.89

$$$$
>  <Molecule>
COc1cc(Nc2ncnc(-n3c(NCc4cccc(F)c4)nc4ccccc43)n2)cc(OC)c1OC

>  <Reported Endpoint>
pIC50

>  <Experimental Result>
< 5.05

$$$$
>  <Molecule>
COc1ccc(CNc2ncccc2-c2ncnc(Nc3cc(OC)c(OC)c(OC)c3)n2)nc1

>  <Reported Endpoint>
pIC50

>  <Experimental Result>
< 5.02

$$$$
>  <Molecule>
CC(C)(C)OC(=O)NCc1cccc(Nc2ncnc(Nc3cc(-c4ccccc4)n[nH]3)n2)c1

>  <Reported Endpoint>
pIC50

>  <Experimental Result>
< 5.01

$$$$

Input line: Fill in the blank: the reported pIC50 of CN1CCN(Cc2cccc(Nc3ncnc(Nc4cccc5ccccc45)n3)c2)CC1 is ____.
Output line: < 4.98

Input line: Fill in the blank: the reported pIC50 of O=c1[nH]c2ccccc2n1-c1ncnc(Nc2ccc(Cl)cc2Cl)n1 is ____.
Output line: < 4.92

Input line: Fill in the blank: the reported pIC50 of COc1cc(Nc2ncnc(-n3c(NCc4cccc(Cl)c4)nc4ccccc43)n2)cc(OC)c1OC is ____.
Output line: < 5.06

Input line: Fill in the blank: the reported pIC50 of COc1cc(Nc2ncnc(-c3cccnc3Cl)n2)cc(OC)c1OCCN1CCOCC1 is ____.
Output line: < 5.02

Input line: Fill in the blank: the reported pIC50 of Cc1ccc2c(c1)CCCN2c1ncnc(Nc2cc[nH]n2)n1 is ____.
Output line: < 4.83

Input line: Fill in the blank: the reported pIC50 of O=C(O)Cc1cccc(Nc2ncnc(Nc3cccc(Br)c3)n2)c1 is ____.
Output line: < 4.95

Input line: Fill in the blank: the reported pIC50 of CCN(c1cccc(C)c1)c1ncnc(Nc2cc(OC)c(OC)c(OC)c2)n1 is ____.
Output line: < 4.94
